Record type: GI50 measurement. Applies to: U251 CNS
readout_name: GI50

molecule_smiles | measured
CC1(C)CN=C(NN=C(/C=C/c2ccc(C(F)(F)F)cc2)/C=C/c2ccc(C(F)(F)F)cc2)NC1 | 1200 nM
CCCc1cc(=O)n2c(C(=O)Nc3ccc(Cl)cc3C)c(C(=O)Nc3ccc(F)cc3)sc2n1 | 1510 nM
Nc1cc(Br)c(-c2nnc(CCC(=O)c3nc4ccccc4[nH]3)o2)c(Br)c1 | 3500 nM
O=C(Nc1cc(Nc2ncccc2-c2ncnc3nc[nH]c23)ccc1F)c1cc(C(F)(F)F)cc(C(F)(F)F)c1 | 2880 nM
COc1cc2cc(Oc3ccc(NC(=O)c4cc(C(F)(F)F)cc(C(F)(F)F)c4)cc3)c(C)nc2cc1OC | 2640 nM

----------
TGI values, listed per item
Test system: SK-MEL-2 melanoma
method_summary: NCI tumour cell line growth inhibition, 48 h

compound | system_name | TGI
O=C(Nc1ccccc1F)c1cc2ccc(O)cc2oc1=Nc1ccccc1F | SK-MEL-2 melanoma | 4.05 µM
Cn1c(=O)c2c(nc(C(=N)SCC(=O)O)n2C)n(C)c1=O | SK-MEL-2 melanoma | > 100 µM
CNc1ncnc2c1cnn2COCC(O)CO (stereo not drawn) | SK-MEL-2 melanoma | > 100 µM
CC(O)CCCOC(c1ccccc1)(c1ccccc1)c1ccccc1 (stereo not drawn) | SK-MEL-2 melanoma | 29.5 µM
CC(C)(C)c1ccc2c(c1)S(=O)(=O)Nc1ccc(Cl)cc1NS(=O)(=O)c1cc(C(C)(C)C)ccc1OCCOCCOCCO2 | SK-MEL-2 melanoma | > 100 µM
NC(CC1=CS(=O)(=O)c2ccc(Cl)cc21)C(=O)O (stereo not drawn) | SK-MEL-2 melanoma | > 100 µM
CC(C(=O)N1C(=O)N(C(=O)C(C)C(O)c2ccccc2)C2CCCCC21)C(O)c1ccccc1 (stereo not drawn) | SK-MEL-2 melanoma | > 100 µM
Cc1cccc(C2=C/C(=C(\SS/C(C(=O)c3ccc(OCC(=O)O)c(Cl)c3Cl)=C3\C=C(c4cccc(C)c4)SS3)C(=O)c3ccc(OCC(=O)O)c(Cl)c3Cl)SS2)c1 | SK-MEL-2 melanoma | 39.8 µM
O=C(NC(COC(=O)C(Cc1ccccc1)NC(=O)c1ccccc1)Cc1ccccc1)c1ccccc1 (stereo not drawn) | SK-MEL-2 melanoma | > 50 µM
COc1c(O)c2c3c(c(C)cc(O)c3c1O)C(=O)C(O)(C(C)(C)C(C)=O)C2=O (stereo not drawn) | SK-MEL-2 melanoma | > 100 µM
O=C1CCCN1c1ccccc1I(=O)=O | SK-MEL-2 melanoma | > 100 µM
O=C(N/C(=C\c1ccc([N+](=O)[O-])cc1)c1nc2ccccc2[nH]1)c1ccccc1 | SK-MEL-2 melanoma | > 100 µM
CCC1=CC2CN3Cn4c(c(COCc5c6n(c7ccccc57)CN5CC7C=C(CC)C5C6(C(=O)OC)C7)c5ccccc54)C(C(=O)OC)(C2)C13 | SK-MEL-2 melanoma | > 100 µM
CCOC(=O)NC(=O)c1cn(C2CCCCC2)c(=O)[nH]c1=O | SK-MEL-2 melanoma | > 100 µM
C=CCNC(=S)N=Nc1c(O)[nH]c2ccc([N+](=O)[O-])cc12 | SK-MEL-2 melanoma | > 100 µM
C[C@]12CC[C@@H]3c4ccc(O)cc4CC[C@H]3[C@@H]1C/C(=C\c1ccncc1)[C@@H]2O | SK-MEL-2 melanoma | 37.4 µM
CC(=O)OCC1OC(n2cc(I)c(=O)[nH]c2=O)C(OC(C)=O)C(OC(C)=O)C1OC(C)=O (stereo not drawn) | SK-MEL-2 melanoma | > 100 µM
CC(C)=C1CCC(CN(C)C)C1=O (stereo not drawn) | SK-MEL-2 melanoma | 78.4 µM

----------
Catalogue of TGI values
Tested on: NCI-H460 lung
method_summary: NCI tumour cell line growth inhibition, 48 h
readout_name: TGI (µM)

compound | measurement_qualifier | measured
O=C(/C(=C\c1c(-c2ccccc2)[nH]c2ccccc12)S(=O)(=O)c1ccccc1)c1ccccc1 | > | 100
CC(O)CCCOC(c1ccccc1)(c1ccccc1)c1ccccc1 (stereo not given) | = | 30.6
C#CCOc1cccc(Nc2ncnc3c(NC(=O)C=C)cccc23)c1 | = | 80.4
CCCC/C(=C\C1=C(C)C(=O)C(OC)=C(OC)C1=O)C(=O)O | > | 100
N/C(=N\S(=O)(=O)c1c(C(F)(F)F)cccc1C(F)(F)F)Nc1ccc(Cl)cc1 | > | 100

----------
Tested on: OVCAR-5 ovarian
method_summary: NCI tumour cell line growth inhibition, 48 h
readout_name: TGI (µM)

compound | measurement_qualifier | measured
CC1CC(O)C(=O)C(O[C@@H]2C[C@@H]3CC[C@@H]4[C@H](CC[C@]5(C)C(C6=CC(=O)OC6)CC[C@]45O)[C@@]3(C=O)C[C@H]2O)O1 (some centres not stated) | = | 0.283
COC(=O)/C([Se]c1c(C)cc(C)cc1C)=C(/[Se]c1c(C)cc(C)cc1C)C(=O)OC | > | 100
CC1=C2C(=C[C@H]3[C@]4(C)CCCC(C)(C)[C@H]4CC[C@]34O[C@H]24)OC1=O | > | 100
CC(O)CCCOC(c1ccccc1)(c1ccccc1)c1ccccc1 (configuration not stated) | = | 30.5
NCCCN1CCN(CCCNc2ccc3nnn4c5ccccc5c(=O)c2c34)CC1 | > | 100
S=c1[nH]c2ccc(Br)cc2c(=S)s1 | = | 60.4
C[C@@H](Cl)[C@H]1CCCN(Cc2ccc(Br)cc2)C1 | > | 12.5

----------
Tested on: NCI-H522 lung
method_summary: NCI tumour cell line growth inhibition, 48 h

molecule | TGI
Cc1cn([C@@H]2C[C@H](CO)[C@@H](O)C2)c(=O)[nH]c1=O | > 100 µM
C[C@@H](Cl)[C@H]1CCCN(Cc2ccc(Br)cc2)C1 | > 12.5 µM
O=C(Oc1cc(=O)c(OC(=O)c2ccccc2)co1)c1ccccc1 | > 100 µM
CCOC(=O)C1(C(=O)OCC)COS(=O)OC1 | 2.1 µM
S=C(/N=c1\sc(Nc2ccc(Cl)cc2)nc2sc3c(c12)CCN(N1CCc2c(sc4nc(Nc5ccc(Cl)cc5)s/c(=N\C(=S)Nc5ccc(Cl)cc5)c24)C1)C3)Nc1ccc(Cl)cc1 | > 100 µM
Nc1nc(Cl)cc(NCC2(CO)CCC(CCc3ccccc3)C2)n1 (stereo not given) | 25.6 µM
COc1ccc(-c2c3c([nH]c(=S)c2C#N)CC(C)(C)CC3=O)cc1 | > 100 µM
CCC1=CC2CN3Cn4c(c(COCc5c6n(c7ccccc57)CN5CC7C=C(CC)C5C6(C(=O)OC)C7)c5ccccc54)C(C(=O)OC)(C2)C13 | > 100 µM
Cn1ccnc1C(O)(c1nccn1C)c1nccn1C | > 100 µM
CN(C(=O)c1ccc([N+](=O)[O-])cc1)c1ccccc1 | > 100 µM

----------
// GI50 lookup, one value per entry
Tested on: OVCAR-8 ovarian
method_summary: NCI tumour cell line growth inhibition, 48 h
readout_name: GI50

molecule_smiles | readout_name | measured
NNCCc1ccc(NC(=O)CCCc2ccc(C(=O)Nc3ccccc3N)cc2)cc1 | GI50 | 8.52 µM
Nc1cc2c(cc1Br)[nH]c(=O)c1ccccc12 | GI50 | 3.37 µM
O=C(Nc1cc(Cl)ccc1O)c1ccc(Nc2ccnc(C(F)(F)F)c2)cc1 | GI50 | 4.54 µM
C=CC(=O)N1CN(C(=O)C=C)CN(C(=O)C=C)C1 | GI50 | 2.93 µM
O=C(O)c1cccc(COc2ccc([N+](=O)[O-])cc2Cl)c1 | GI50 | 86.4 µM
CCCc1cc(=O)n2c(C(=O)Nc3ccc(Cl)cc3C)c(C(=O)Nc3ccc(F)cc3)sc2n1 | GI50 | 2.05 µM
O=C1c2ccccc2-c2c1c1ccccc1c(=O)n2CCN1CCNCC1 | GI50 | 0.968 µM
COc1cc2c(Nc3cc(Cl)c(OC)c(Cl)c3)c(C#N)cnc2cc1OCCCN1CCN(C)CC1 | GI50 | 1.24 µM

----------
Each entry below lists one item and its recorded TGI value.
Test system: SK-MEL-2 melanoma
method_summary: NCI tumour cell line growth inhibition, 48 h

compound | TGI
O=C(NCCCN(CCCCN(CCCNC(=O)C(F)(F)F)Cc1ccc2ccccc2c1)Cc1ccc2ccccc2c1)C(F)(F)F | > 100 µM
Cc1cc2c([N+](=O)[O-])cc3c(c2o1)C(=O)C=CC3=O | 35.3 µM
Cc1cn(-c2cc(C(=O)Nc3cccc(-n4ccc5c(NC(=O)c6ccccc6)nccc54)c3)cc(C(F)(F)F)c2)cn1 | 11.9 µM
Nc1cc(Br)c(-c2nnc(CCC(=O)c3nc4ccccc4[nH]3)o2)c(Br)c1 | > 100 µM
O=C(CC(=O)C1CCOC1=O)C(=O)Nc1cccc(Cl)c1 (stereo unspecified) | > 100 µM
COc1nc2ncc([C@@H](OC(C)=O)[C@@H](COC(C)=O)OC(C)=O)nc2c(=O)[nH]1 | > 100 µM
N#CC(=Nc1ccccc1N(C(=O)c1ccccc1)C(=O)c1ccccc1)c1ccccc1 | > 100 µM
CCc1ccc2c(c1)C(=O)c1c-2n(CCCN=[N+]=[N-])c(=O)c2cc([N+](=O)[O-])ccc12 | > 50 µM
O=C1Sc2ccccc2C(=O)N2CSCC12 (stereo unspecified) | > 100 µM
O=C1Nc2ccccc2/C1=C1\CCc2cc(O)ccc21 | > 25 µM
CO[C@H]1Nc2c(ccc(C)c2O)C(=O)N2C=C(/C=C/C(N)=O)C[C@@H]12 | 0.0223 µM
O=C(Cc1nc2c3c(ccc2[nH]c1=O)C(=O)c1ccccc1C3=O)C(=O)Nc1ccccc1[N+](=O)[O-] | 45.4 µM
NNCCc1ccc(NC(=O)CCCc2ccc(C(=O)Nc3ccccc3N)cc2)cc1 | > 100 µM
CCOC(=O)NC(=O)c1cn(C(CC)COC(=O)NCCCCCCNC(=O)OCC(CC)n2cc(C(=O)NC(=O)OCC)c(=O)[nH]c2=O)c(=O)[nH]c1=O (stereo unspecified) | > 100 µM
O=C(CN(c1ccccc1)c1ccccc1)N1c2ccccc2C2C=CC=CC21 (stereo unspecified) | 38.8 µM
CCC1=NC(C(F)(F)F)(C(F)(F)F)N=C(N2CCOCC2)O1 | > 100 µM
C[C@@H]1S[C@H](c2ccccc2F)N2Cc3ccccc3N=C12 | 34.7 µM
O=c1ccn(C2OC(CO)C(P(=O)(O)O)C2O)c(=O)[nH]1 (stereo unspecified) | > 100 µM
CCNC(=O)/C(=C/c1ccc(OC)cc1)c1cc(OC)c(OC)c(OC)c1 | > 100 µM
Cc1ccc([N+](=O)[O-])cc1N=NC(=O)NNc1cc([N+](=O)[O-])ccc1C | > 100 µM
ClC(Cl)=C1C(=C(Cl)Cl)C(Cl)(Cl)C1(Cl)Cl | 3.32 µM
COc1cc2c(/C=N\N=C(N)N)c[nH]c2cc1C | > 100 µM
COc1ccc(-c2cnnn2-c2nonc2-n2cccc2)cc1 | 0.8 µM
C#CCOc1cccc(Nc2ncnc3c(NC(=O)C=C)cccc23)c1 | 63.7 µM
COc1ccc(CC2c3c(cc(OC)c(OC)c3OC)CCN2C)cc1OC (stereo unspecified) | > 100 µM
C=Cc1ccc(C)[n+](C[Si](C)(C)O[Si](C)(C)C[n+]2cc(C=C)ccc2C)c1 | > 100 µM
COc1cc2c(Nc3cc(Cl)c(OC)c(Cl)c3)c(C#N)cnc2cc1OCCCN1CCN(C)CC1 | 2.9 µM
Cc1ccc(OCCOCCOCCOCCOc2ccc(C)n(O)c2=S)c(=S)n1O | > 100 µM
Nc1c(-c2ccccc2-c2c(N)[n+]([O-])c3ccccc3[n+]2[O-])[n+]([O-])c2ccccc2[n+]1[O-] | > 100 µM
C(=Nc1ccc(-c2nc3ccccc3o2)cc1)c1ccco1 | > 100 µM
Cc1c(N2C(=O)C(Cl)C2c2ccc(Cl)cc2)c(=O)n(-c2ccccc2)n1C (stereo unspecified) | > 100 µM
COc1ccc(C(=O)c2cc(OC)c(OC)c(OC)c2)cc1OC | > 100 µM
CCOC(=O)c1c(-c2ccccc2)c(-c2ccccc2)cn1C | > 10 µM
COc1ccc(-c2c3c([nH]c(=S)c2C#N)CC(C)(C)CC3=O)cc1 | > 100 µM
C=C1c2cc3c(cc2CC12Cc1cc4c(cc1C2=O)CCC4)CCC3 (stereo unspecified) | > 100 µM
c1ccc2c(c1)c1c(n2CCOCCN2CCOCC2)CCCC1 | 52.4 µM
CC1CN=C(N(C(=O)Nc2ccc(F)c(Cl)c2)c2ccccc2)S1 (stereo unspecified) | 32.8 µM
CCN(CC)CCCNC(=O)c1ccc([N+](=O)[O-])cc1O | > 100 µM
N[C@H](CCC(=O)N[C@@H](Cc1c[nH]c2ccccc12)C(=O)O)C(=O)O | > 100 µM
COC(=O)CN1c2nc(C#N)c(C#N)nc2N(CC(=O)OC)c2nc(C#N)c(C#N)nc21 | > 100 µM
COc1cc2c(cc1OC)[C@H]1CN3CCC[C@H]3C=C1c1ccc(OC)c(O)c1-2 | 0.000975 µM
